- Test Description: Metabolism in human hepatocytes
- Type: ADME, cell-based, Hepatocyte
- Reported Conditions: read-out: Activity
Readout: metabolised (%)

O=C(/C=C/c1ccccc1Cc1ccc2ccccc2c1)NS(=O)(=O)c1cccs1 = 45
COc1ccc(Br)cc1S(=O)(=O)NC(=O)/C=C/c1ccccc1Cc1ccc2ccccc2c1 = 36

* * *

Reported values of Ki for individual entries
- Tgt: Prostaglandin E2 receptor EP3 subtype (Homo sapiens)
- Sequence (P43115 whole entry): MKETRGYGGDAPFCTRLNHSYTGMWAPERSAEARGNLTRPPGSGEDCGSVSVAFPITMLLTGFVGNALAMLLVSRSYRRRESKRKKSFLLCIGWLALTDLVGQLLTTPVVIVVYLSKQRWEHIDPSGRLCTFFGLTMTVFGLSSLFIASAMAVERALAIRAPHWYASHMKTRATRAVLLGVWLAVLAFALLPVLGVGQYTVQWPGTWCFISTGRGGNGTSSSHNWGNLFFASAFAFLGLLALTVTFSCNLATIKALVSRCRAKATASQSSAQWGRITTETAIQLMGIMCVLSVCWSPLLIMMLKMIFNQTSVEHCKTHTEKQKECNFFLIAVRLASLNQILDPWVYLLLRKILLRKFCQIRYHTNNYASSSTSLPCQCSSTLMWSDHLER
- Test Description: Binding affinity to EP3 receptor in presence of HSA

Below: 4 molecules and their reported Ki.
O=C(O)/C=C/c1ccccc1Cc1ccc2cc(OCc3ccccc3)ccc2c1 = 46 nM (antagonist)
COc1ccc(Br)cc1S(=O)(=O)NC(=O)/C=C/c1ccccc1Cc1ccc2ccccc2c1 = 6.9 nM (antagonist)
O=C(O)/C=C/c1ccccc1Cc1ccc2ccccc2c1 = 400 nM (antagonist)
O=C(/C=C/c1ccccc1Cc1ccc2cc(OCc3ccccc3)ccc2c1)NS(=O)(=O)c1cccs1 = 2.4 nM (antagonist)

Now consider the entry below.
q: # query: Ki of entry COc1ccc(Br)cc1S(=O)(=O)NC(=O)/C=C/c1ccccc1Cc1ccc2cc(OCc3ccccc3)ccc2c1
a: 0.7 nM (antagonist)

From: ChEMBL document CHEMBL1139690
